# MEASUREMENT_TARGET: T1, human Nectin-4 extracellular antigen hNectin-4-His (human, UniProt Q96NY8 32-349)
# T1 construct: C-terminal 8xHis tag included
# T1 sequence: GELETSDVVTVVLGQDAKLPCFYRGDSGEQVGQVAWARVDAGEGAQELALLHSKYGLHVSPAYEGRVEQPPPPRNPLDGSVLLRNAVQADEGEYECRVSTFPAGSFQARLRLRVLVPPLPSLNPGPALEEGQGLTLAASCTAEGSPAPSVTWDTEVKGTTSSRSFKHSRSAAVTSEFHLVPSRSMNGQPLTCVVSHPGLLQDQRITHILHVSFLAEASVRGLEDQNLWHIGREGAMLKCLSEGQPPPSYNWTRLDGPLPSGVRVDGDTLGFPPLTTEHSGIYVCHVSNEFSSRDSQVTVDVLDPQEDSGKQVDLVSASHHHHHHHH
# MEASUREMENT_NOTES: SPR, antibody on Protein A chip, 1:1 fit
pKd: −log10 of the molar value.
I would appreciate it if you labelled entries rule met when pKd is 9 or higher, otherwise rule not met.

Examples from the recorded data:
| BINDER | CLASS_ASSIGNMENT |
| --- | --- |
| antibody 1F3-1E1 (antibody, human IgG1, kappa, V domains shown) VH: EVQLVESGGGLVQPGGSLRLSCAASGFSFDDYAMSWVRQAPGKGLEWVSIIYPTGSTNYYADSVKGRFTISRDNSKNTLYLQMNSLRAEDTAVYYCARAELLAFDVYTASDYWGQGTLVTVSS VL: DIQMTQSPSSLSASVGDRVTITCRASQGISSYLAWYQQKPGKAPKLLIYAASSLQSGVPSRFSGSGSGTDFTLTISSLQPEDFATYYCQQHYTTPPTFGQGTKVEIKR | rule met |
| antibody 10F4-5 (antibody, human IgG1, kappa, V domains shown) VH: EVQLVESGGGLVQPGGSLRLSCAASGFIFDGYDMSWVRQAPGKGLEWVSVIKDHGGYKFYADSVKGRFTISRDNSKNTLYLQMNSLRAEDTAVYYCAREYSDVVDYVSVRTPLDYWGQGTLVTVSS VL: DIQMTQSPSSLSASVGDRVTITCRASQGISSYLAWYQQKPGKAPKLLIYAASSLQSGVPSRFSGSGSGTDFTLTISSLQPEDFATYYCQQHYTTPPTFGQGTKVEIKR | rule met |

Query :: Textbook exercise: given the entry antibody 10F4-1H6 (antibody, human IgG1, kappa, V domains shown) VH: EVQLVESGGGLVQPGGSLRLSCAASGFNFYDYDMSWVRQAPGKGLEWVSGIKTHSGGNGYADSVKGRFTISRDNSKNTLYLQMNSLRAEDTAVYYCAREYSDVVDYVSVRTPLDYWGQGTLVTVSS VL: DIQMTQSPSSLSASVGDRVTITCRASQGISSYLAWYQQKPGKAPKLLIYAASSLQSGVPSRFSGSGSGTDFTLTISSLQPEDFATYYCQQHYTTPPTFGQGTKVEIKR , state whether its pKd is greater than or equal to 9.
Result :: rule met

Query :: Decide: is the reported value of pKd for antibody 1G8-2B3 (antibody, human IgG1, kappa, V domains shown) VH: EVQLVESGGGLVQPGGSLRLSCAASGYNFTTSAMSWVRQAPGKGLEWVSRIYQDSSTTDYADSVKGRFTISRDNSKNTLYLQMNSLRAEDTAVYYCARQTEDRSYGYDLDYWGQGTLVTVSS VL: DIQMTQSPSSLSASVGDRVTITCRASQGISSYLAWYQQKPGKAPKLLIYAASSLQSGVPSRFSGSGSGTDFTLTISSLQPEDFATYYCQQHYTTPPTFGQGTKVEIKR equal to or greater than 9?
Result :: rule not met

Query :: Threshold query (pKd >= 9) on antibody 10F4-1C10 (antibody, human IgG1, kappa, V domains shown) VH: EVQLVESGGGLVQPGGSLRLSCAASGYNFGSYDMSWVRQAPGKGLEWVSGIKTYGGNTHYADSVKGRFTISRDNSKNTLYLQMNSLRAEDTAVYYCAREYSDVVDYVSVRTPLDYWGQGTLVTVSS VL: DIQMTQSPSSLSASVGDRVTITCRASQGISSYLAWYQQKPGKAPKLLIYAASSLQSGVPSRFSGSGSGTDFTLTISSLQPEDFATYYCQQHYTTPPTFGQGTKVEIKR
Result :: rule met
